ASSAYED TARGET: Potassium channel subfamily K member 9 (Homo sapiens)
ASSAY SUMMARY: blockers of human TASK-3 (KCNK9) channel – HEK293 cells, thallium flux, primary screen (AID 488922);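 for B-score: negative B-score means less thallium flux so channel inhibition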
MEASUREMENT PARAMETERS: HEK293 KCNK9, FluxOR thallium flux fluorescence, at 10 µM; stronger effect = lower value
About 3,800 (1.2%) of roughly 310,000 compounds were called active. Many of the other results were omitted from the sample, so actives are more common in it than they were.
ASSAY ENDPOINT: B-score

Please review the following examples before continuing.
COMPOUND	ASSAY ENDPOINT	RECORDED MEASUREMENT
O=C(Nc1ccc(S(=O)(=O)Nc2ccccn2)cc1)c1ccccc1	B-score	inactive
CCCCN(CCCC)CC(O)Cn1c2ccccc2c(=O)c2ccccc21 (stereo unspecified)	B-score	inactive
CCCCC(CC)CNC(=O)C(=O)C1C(=O)Nc2ccccc21 (stereo unspecified)	B-score	inactive
CCCCCOC(=O)C1=C(C)Nc2nnnn2C1c1ccc(OC)c(OC)c1OC (stereo unspecified)	B-score	inactive
Cc1scc(C(=O)NNC(=S)NCc2ccccc2)c1C	B-score	inactive

Now for a further compound.
QUERY: Name the recorded B-score of the item COc1ccccc1C(=O)NCc1nnc(SC(C)C(=O)Nc2nccs2)n1C (stereo unspecified) in your answer.
RESULT: inactive

====

ASSAYED TARGET: Potassium channel subfamily K member 9 (Homo sapiens) (UniProt Q9NPC2)
Sequence (Q9NPC2 whole entry, looked up): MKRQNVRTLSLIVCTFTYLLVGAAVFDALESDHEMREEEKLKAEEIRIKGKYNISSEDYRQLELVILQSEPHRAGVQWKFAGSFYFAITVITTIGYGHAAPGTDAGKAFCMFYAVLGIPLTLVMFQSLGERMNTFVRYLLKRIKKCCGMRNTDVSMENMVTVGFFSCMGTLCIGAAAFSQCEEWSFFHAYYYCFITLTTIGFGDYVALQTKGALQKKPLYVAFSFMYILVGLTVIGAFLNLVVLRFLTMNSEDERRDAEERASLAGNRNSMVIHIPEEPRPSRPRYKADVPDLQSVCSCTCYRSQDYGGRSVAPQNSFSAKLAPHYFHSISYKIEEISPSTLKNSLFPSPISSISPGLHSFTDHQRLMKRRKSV
ASSAY SUMMARY: blockers of human TASK-3 (KCNK9) channel – HEK293 cells, thallium flux, primary screen (AID 488922)
MEASUREMENT PARAMETERS: HEK293 KCNK9, FluxOR thallium flux fluorescence, at 10 µM
In all, about 310,000 compounds went through this assay and about 3,800 (1.2%) were called active.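 Rule for the calls: active = ratio B-score over 3 SD below the library mean, with starting fluorescence within 5 SD of its mean; inactive = the rest, inconclusive results apart.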 The list comes from a sample in which actives are over-represented; it also holds close analogues and randomly drawn compounds.
Select the correct class. Options are active, inactive and nothing else.

Some solved cases for reference:
COMPOUND	CAT
CCc1cc(=O)oc2cc(OCC(=O)N3CCCc4ccccc43)ccc12	inactive
Clc1ccc(-c2ncc3ccccn23)c(Cl)c1	inactive
Cc1cc(C=O)c(C)n1-c1ccc(NC2CCCCC2)c([N+](=O)[O-])c1	active
COC(=O)C1=C(Nc2ccc(OC)cc2)C=C(C)C(C(=O)OC)C1c1ccc(C)cc1 (configuration not stated)	inactive
CC(C)c1c(C(=O)N/N=C/c2ccccc2C(=O)O)nnn1-c1nonc1N	inactive
Cc1cc([N+](=O)[O-])ccc1NC1CCCC1	inactive

QUERY: Called result for COC(=O)C1=C(Nc2ccc(C)cc2)C=C(C)C(C(=O)OC)C1c1ccc(F)cc1 (configuration not stated)
RESULT: active

====

ASSAYED TARGET: Potassium channel subfamily K member 9 (Homo sapiens) (UniProt Q9NPC2)
ASSAY SUMMARY: blockers of human TASK-3 (KCNK9) channel – HEK293 cells, thallium flux, primary screen (AID 488922)
MEASUREMENT PARAMETERS: HEK293 KCNK9, FluxOR thallium flux fluorescence, at 10 µM
Screen size: about 310,000 compounds; about 3,800 (1.2%) were called active.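 How the source made its calls: active means ratio B-score over 3 SD below the library mean, with starting fluorescence within 5 SD of its mean; inactive means the rest, inconclusive results apart.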 The sample holds actives, similar compounds and a random draw of the others, so the mix is not that of the screen.
Select the correct class. Options are active, inactive and nothing else.

Some solved cases for reference:
MOLECULE	ASSAYED TARGET	CAT
CS(=O)(=O)N(CC(=O)Nc1ccc(Cl)c(Cl)c1)C1CCCCC1	Potassium channel subfamily K member 9 (Homo sapiens) (UniProt Q9NPC2)	active
CC1=NN(C(=O)c2ccc(Br)cc2)C(O)(c2ccccc2)C1 (centres undefined)	Potassium channel subfamily K member 9 (Homo sapiens) (UniProt Q9NPC2)	inactive
CCOC(=O)CSc1nc2c(sc(=S)n2CCc2ccccc2)c(=O)n1Cc1ccco1	Potassium channel subfamily K member 9 (Homo sapiens) (UniProt Q9NPC2)	active

QUERY: Called result for COc1cccc(-c2ccc(SCC(=O)N3CCN(c4ccccc4)CC3)nn2)c1
RESULT: inactive

QUERY: Called result for CCOc1ccc(N(C)Cc2cc(=O)oc3ccc(OC)cc23)cc1
RESULT: inactive

QUERY: Called result for COC(=O)CSc1nc2ccccc2c(=O)n1Cc1ccccc1
RESULT: inactive

QUERY: Called result for COc1ccc(-c2nc3cc([N+](=O)[O-])ccc3o2)cc1OC
RESULT: inactive

QUERY: Called result for CCC1=NN(C(=O)Cc2ccc([N+](=O)[O-])cc2)C(O)(c2ccc(Br)cc2)C1 (centres undefined)
RESULT: active

QUERY: Called result for Cn1nc(C(F)(F)F)c2cc(C(=O)N3CCOCC3)sc21
RESULT: inactive
